Study Target: hCB2 (Homo sapiens)
Sequence (P34972 whole entry): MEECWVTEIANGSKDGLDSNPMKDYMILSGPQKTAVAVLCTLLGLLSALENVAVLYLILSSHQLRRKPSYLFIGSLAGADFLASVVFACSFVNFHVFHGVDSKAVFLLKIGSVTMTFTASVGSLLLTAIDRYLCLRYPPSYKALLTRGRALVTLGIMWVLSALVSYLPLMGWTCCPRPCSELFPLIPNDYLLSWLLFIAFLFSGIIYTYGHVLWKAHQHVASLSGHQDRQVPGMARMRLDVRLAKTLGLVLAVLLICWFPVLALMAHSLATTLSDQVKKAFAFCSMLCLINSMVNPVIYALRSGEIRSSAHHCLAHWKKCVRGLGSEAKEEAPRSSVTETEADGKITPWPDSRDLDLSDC
Assay Overview: CB2 in vitro functional assay (SPA based GTP-γ-35S binding, agonist mode)
Format: biochemical
Where a name gives a salt, the structure may show the parent alone.
Endpoint Name: pEC50
Scale explanation: pEC50 corresponds to minus log10 of a concentration expressed in moles per litre.

Item COCCCn1c(-c2ccccc2Cl)nc2c(N3CCN(CCF)CC3)nc(C)nc21 [Example 6, hydrochloride] : provide pEC50
8.57

----------
Assay Overview: Dose-ranging toxicity study in beagle dogs
Type: in vivo, dog
Experimental Conditions: both sexes, beagle; dog, 30 mg/kg single oral dose, plasma; read-out: mean Area-Under the Curve from 0-24 hours (AUC0-24hr)
Endpoint Name: AUC(0-t)
Phrase the answer as number then unit, nothing more needed.

Note AUC(0-t) for the compound shown: Cc1nc(N2CCN(C)CC2)c2nc(-c3ccccc3Cl)n(C(C)CO)c2n1.Cl (single isomer, unassigned; isomer 2)
44500 ng·h/mL
